# maps each entry to its % inhibition
testTarget: T1, recombinant human EGFR extracellular domain with 6xHis (human, UniProt P00533 25-645)
T1 construct: In-house produced; also called 6xHis EGFR ECD; soluble human EGFR ECD; not shown: 6xHis tag
procedureText: SPR competition, competitor 1284
Return type: number; implicit unit %.

# binder, unitLabel, % inhibition
records = [
    ("antibody 1347 (antibody, human IgG1, kappa, V domains shown, Chimeric IgG1 kappa) VH: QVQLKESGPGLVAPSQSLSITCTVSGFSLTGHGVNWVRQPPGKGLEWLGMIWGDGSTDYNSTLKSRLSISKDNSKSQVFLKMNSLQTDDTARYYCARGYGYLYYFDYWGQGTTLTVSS VL: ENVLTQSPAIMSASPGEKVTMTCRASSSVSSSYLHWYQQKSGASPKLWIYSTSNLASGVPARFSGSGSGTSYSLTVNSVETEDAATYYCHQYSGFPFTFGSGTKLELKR", "%", 61),
]

We next turn to a different binder, shown below.
Ask: Which % inhibition is reported for this binder? antibody 1308 (antibody, human IgG1, kappa, V domains shown, Chimeric IgG1 kappa) VH: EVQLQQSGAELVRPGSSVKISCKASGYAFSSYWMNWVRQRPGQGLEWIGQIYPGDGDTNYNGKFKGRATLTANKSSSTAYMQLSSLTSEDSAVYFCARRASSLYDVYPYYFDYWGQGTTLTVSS VL: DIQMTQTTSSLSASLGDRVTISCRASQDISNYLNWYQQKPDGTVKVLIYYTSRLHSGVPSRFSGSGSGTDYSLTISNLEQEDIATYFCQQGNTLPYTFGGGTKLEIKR
Reply: 76
